# Tested on: AncSZ
# test_details: phosphorylation enrichment, bacterial display (enrichment ratio); higher = better substrate or ligand; peptides without Tyr show the background;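 further: 11-residue human phosphosite peptides and single-mutation variants displayed on the E. coli surface, counted by deep sequencing, each peptide's frequency after selection divided by its frequency in the unselected input library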;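 further: frequency after pTyr selection over input frequency; kinase dosed for 20-30% of maximal phosphorylation in three min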
Please mark true (1) if the recorded phosphorylation enrichment is equal to or greater than 0.6, and false (0) if it falls below.

Dear colleague, could you confirm whether HGAKVYIDPFT [EPHB4_Y590_T587A] has phosphorylation enrichment at or above 0.6?
true (1)

Dear colleague, could you confirm whether RRGTGYTLSLP [MAGEC3_Y152] has phosphorylation enrichment at or above 0.6?
false (0)

Dear colleague, could you confirm whether REVKAYGAGLL [TH_Y419_G414R] has phosphorylation enrichment at or above 0.6?
false (0)

Dear colleague, could you confirm whether MACDRYVAICS [OR8D4_Y123] has phosphorylation enrichment at or above 0.6?
true (1)

Dear colleague, could you confirm whether VASMFYTLVIP [OR8K3_Y277_I275M] has phosphorylation enrichment at or above 0.6?
true (1)

Dear colleague, could you confirm whether RKKEEYKMALY [F8_Y1990] has phosphorylation enrichment at or above 0.6?
false (0)

Dear colleague, could you confirm whether EDDPEYMRLRN [ADD2_Y31] has phosphorylation enrichment at or above 0.6?
true (1)

----------
# Test system: AncSZ
# test_details: phosphorylation enrichment, bacterial display (enrichment ratio); higher = better substrate or ligand; peptides without Tyr show the background
property_measured: phosphorylation enrichment
Reply: number alone, nothing else.

Form: item EQKKYYNATKK [SCN5A_Y1495_M1498T] ; test system AncSZ; phosphorylation enrichment: 0.478

Form: item GNEEAYGRSHI [FAM171B_Y522] ; test system AncSZ; phosphorylation enrichment: 0.825

Form: item HYEFKYVINAI [MAOA_Y268_C266F] ; test system AncSZ; phosphorylation enrichment: 1.75

Form: item LQIPMYEVQWK [KIT_Y553_K550I] ; test system AncSZ; phosphorylation enrichment: 2.5

Form: item AHPIIYTIIEA [PYKtide_no-pT_2014] ; test system AncSZ; phosphorylation enrichment: 0.892

Form: item SQQTYYPVSNM [ABCD1_Y181_R182P] ; test system AncSZ; phosphorylation enrichment: 1.32

Form: item PYAEPYADYGG [APBA1_Y187_S184A] ; test system AncSZ; phosphorylation enrichment: 2.86

Form: item NVVVPYEPPEV [TP53_Y220_S215N] ; test system AncSZ; phosphorylation enrichment: 1.11

Form: item WQQQSYLASGI [CTNNB1_Y30_D32A] ; test system AncSZ; phosphorylation enrichment: 0.642

Form: item FECKWYIPLTD [BCR_Y756_D752E_YF] ; test system AncSZ; phosphorylation enrichment: 1.23

Form: item ATQDNYVLEVR [PTPRZ1_Y2179_D2178N] ; test system AncSZ; phosphorylation enrichment: 0.934

Form: item SKAFAYVHFDS [PABPC5_Y149_G146A_YF] ; test system AncSZ; phosphorylation enrichment: 0.935

Form: item RHTRSYDYMEG [FGF7_Y56] ; test system AncSZ; phosphorylation enrichment: 0.609

Form: item PLGPLYASSNP [INSR_Y992] ; test system AncSZ; phosphorylation enrichment: 0.96

Form: item MRALIYNSSTV [PLEKHA7_Y243_A248V] ; test system AncSZ; phosphorylation enrichment: 0.669

Form: item WIPIQDPIISE [NOG_Y222_Y222D] ; test system AncSZ; phosphorylation enrichment: 1.18

Form: item LDPMVYMNDTS [PTK2B_Y834_K838T] ; test system AncSZ; phosphorylation enrichment: 0.958

Form: item VDSNPYSHLMA [UBA5_Y53_R55H] ; test system AncSZ; phosphorylation enrichment: 0.669

Form: item SGFESYGSSSS [RPA2_Y9_Y14S] ; test system AncSZ; phosphorylation enrichment: 0.651

Form: item FSDQVYRQHRK [TH_Y230_R233H] ; test system AncSZ; phosphorylation enrichment: 0.555

Form: item LQLLGYRPVFS [CHST6_Y358_YF] ; test system AncSZ; phosphorylation enrichment: 1.17

Form: item RIFDFYSARKA [STOX1_Y858_YF] ; test system AncSZ; phosphorylation enrichment: 1.21

Form: item LQEQNYLAVDS [FAM114A1_Y115] ; test system AncSZ; phosphorylation enrichment: 2.1

Form: item RWHEGYRQTPR [CD44_Y412_K417R] ; test system AncSZ; phosphorylation enrichment: 0.645

Form: item FTGDIYSNSNL [LZTR1_Y141_YF] ; test system AncSZ; phosphorylation enrichment: 0.957

Form: item DEEFEYMNRRR [ERBB3_Y1199_YF] ; test system AncSZ; phosphorylation enrichment: 1.3

Form: item INITIYGKTFC [EFHC1_Y177_R182C] ; test system AncSZ; phosphorylation enrichment: 1.22

Form: item SSENPCATIKD [MEGF10_Y1030_Y1030C] ; test system AncSZ; phosphorylation enrichment: 0.812

----------
Could you please report measured phosphorylation enrichment for the items listed next?
# System: c-Src
# test_details: phosphorylation enrichment, bacterial display (enrichment ratio); higher = better substrate or ligand; peptides without Tyr show the background
Reply: number alone, nothing else.

Quick note, phosphorylation enrichment for NACGLYHKMNG [GATA5_Y216] landed at 0.523

Quick note, phosphorylation enrichment for LEKRAYICAHP [ACAD9_Y611] landed at 0.462

Quick note, phosphorylation enrichment for FFHCTYKQRMI [CLEC12A_Y242_K244Q_YF] landed at 0.435

Quick note, phosphorylation enrichment for IEENGYNTFAS [FGF10_Y161_YF] landed at 0.628

Quick note, phosphorylation enrichment for PPPPAYDDMAQ [TNK2_Y635_V638M] landed at 0.526

Quick note, phosphorylation enrichment for DSGRDYVSQFE [APOA1_Y53] landed at 0.403

Quick note, phosphorylation enrichment for WCSNDHLGMSR [ALAS2_Y199_Y199H] landed at 0.447

Quick note, phosphorylation enrichment for EGLKVYVNGTL [ADGRD1_Y183] landed at 0.418

Quick note, phosphorylation enrichment for SKAFAYVHFDS [PABPC5_Y149_G146A_YF] landed at 0.424

Quick note, phosphorylation enrichment for RGRSTYYWPSP [GAGE12J_Y9_R13S] landed at 1.23

Quick note, phosphorylation enrichment for RRGLLYDSDEE [MCM2_Y137] landed at 0.763

Quick note, phosphorylation enrichment for FECKWYIPLTD [BCR_Y756_D752E_YF] landed at 0.451

Quick note, phosphorylation enrichment for EMFNPYFGLFE [NEDD4L_Y679_YF] landed at 7.31

Quick note, phosphorylation enrichment for MTRDIYETDYY [INSR_Y1185] landed at 2.42

----------
# study_system: Hck (UniProt P08631)
# Sequence (P08631 whole entry, looked up): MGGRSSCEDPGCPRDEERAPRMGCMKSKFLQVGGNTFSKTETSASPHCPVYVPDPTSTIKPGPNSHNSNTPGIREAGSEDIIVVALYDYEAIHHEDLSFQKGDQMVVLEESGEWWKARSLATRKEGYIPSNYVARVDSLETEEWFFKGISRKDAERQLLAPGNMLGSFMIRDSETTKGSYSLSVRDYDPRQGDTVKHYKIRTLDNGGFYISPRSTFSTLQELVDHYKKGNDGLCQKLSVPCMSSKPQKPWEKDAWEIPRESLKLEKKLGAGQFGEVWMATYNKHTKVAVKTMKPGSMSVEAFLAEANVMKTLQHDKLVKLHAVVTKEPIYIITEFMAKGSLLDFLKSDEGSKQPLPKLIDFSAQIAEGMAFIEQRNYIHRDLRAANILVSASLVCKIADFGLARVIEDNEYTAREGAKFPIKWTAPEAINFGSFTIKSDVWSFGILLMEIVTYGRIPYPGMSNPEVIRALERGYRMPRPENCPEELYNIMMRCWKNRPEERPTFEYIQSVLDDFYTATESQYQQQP
# test_details: phosphorylation enrichment, bacterial display (enrichment ratio); higher = better substrate or ligand; peptides without Tyr show the background
Could you please report measured phosphorylation enrichment for the items listed next?
Reply: number alone, nothing else.

Quick note, phosphorylation enrichment for AGIENYTSRFG [NKD2_Y256] landed at 0.329

Quick note, phosphorylation enrichment for LLNPRYNLPLD [TOM1L1_Y109] landed at 0.741

Quick note, phosphorylation enrichment for KLKNAYEESLE [MYH7_Y1488] landed at 0.384

Quick note, phosphorylation enrichment for EATKVYLDDPT [G6PD_Y322_G321V] landed at 0.458

Quick note, phosphorylation enrichment for KLIETYSSKNF [PLP1_Y50_F51S_YF] landed at 0.519

Quick note, phosphorylation enrichment for LDPMVYMNDTS [PTK2B_Y834_K838T] landed at 0.728

Quick note, phosphorylation enrichment for PLRAYYLIARV [HLCS_Y635_D634Y] landed at 0.415

----------
# study_system: MERTK (UniProt Q12866)
# Sequence (Q12866 whole entry, looked up): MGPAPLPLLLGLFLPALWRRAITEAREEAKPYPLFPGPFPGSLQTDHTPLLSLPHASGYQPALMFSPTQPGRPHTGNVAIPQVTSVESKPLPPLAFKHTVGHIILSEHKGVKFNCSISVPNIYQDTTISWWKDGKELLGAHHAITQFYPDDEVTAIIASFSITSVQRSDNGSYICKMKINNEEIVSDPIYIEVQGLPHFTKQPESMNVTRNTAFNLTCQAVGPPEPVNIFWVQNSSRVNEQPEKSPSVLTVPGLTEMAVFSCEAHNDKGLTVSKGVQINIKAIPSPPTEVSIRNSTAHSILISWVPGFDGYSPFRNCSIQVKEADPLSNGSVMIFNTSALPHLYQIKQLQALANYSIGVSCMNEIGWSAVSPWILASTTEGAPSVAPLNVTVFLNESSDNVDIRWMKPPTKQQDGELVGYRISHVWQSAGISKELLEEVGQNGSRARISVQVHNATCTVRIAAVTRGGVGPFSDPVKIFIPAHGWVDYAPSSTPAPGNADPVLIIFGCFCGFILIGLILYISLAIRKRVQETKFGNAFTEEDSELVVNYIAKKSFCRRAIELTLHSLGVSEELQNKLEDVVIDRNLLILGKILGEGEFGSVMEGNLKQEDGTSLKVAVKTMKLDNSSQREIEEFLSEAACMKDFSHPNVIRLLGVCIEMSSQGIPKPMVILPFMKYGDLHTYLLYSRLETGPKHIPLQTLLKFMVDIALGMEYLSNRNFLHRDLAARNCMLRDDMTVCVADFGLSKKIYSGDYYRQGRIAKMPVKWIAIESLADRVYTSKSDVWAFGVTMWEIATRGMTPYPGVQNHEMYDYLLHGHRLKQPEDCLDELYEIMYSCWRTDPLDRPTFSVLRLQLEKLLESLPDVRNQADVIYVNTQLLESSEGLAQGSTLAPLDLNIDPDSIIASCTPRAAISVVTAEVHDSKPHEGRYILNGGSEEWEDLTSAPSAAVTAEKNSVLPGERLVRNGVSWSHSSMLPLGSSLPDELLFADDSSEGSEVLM
# test_details: phosphorylation enrichment, bacterial display (enrichment ratio); higher = better substrate or ligand; peptides without Tyr show the background
Please mark true (1) if the recorded phosphorylation enrichment is equal to or greater than 0.6, and false (0) if it falls below.

Dear colleague, could you confirm whether HVSISYDIPPT [GAB1_Y307] has phosphorylation enrichment at or above 0.6?
true (1)

Dear colleague, could you confirm whether DKATEYIQYMR [MAX_Y70] has phosphorylation enrichment at or above 0.6?
false (0)

Dear colleague, could you confirm whether REIHDYIKHLG [UNC13C_Y308_D304E] has phosphorylation enrichment at or above 0.6?
true (1)

Dear colleague, could you confirm whether SRDTRYLVLAV [AMH_Y195] has phosphorylation enrichment at or above 0.6?
false (0)

Dear colleague, could you confirm whether RGDTVYTVNRM [KBTBD13_Y404] has phosphorylation enrichment at or above 0.6?
true (1)

Dear colleague, could you confirm whether QRDSSYFWEIE [RAF1_Y340_YF] has phosphorylation enrichment at or above 0.6?
true (1)

Dear colleague, could you confirm whether LLSVAYQNVVG [YWHAG_Y49_K50Q] has phosphorylation enrichment at or above 0.6?
false (0)

Dear colleague, could you confirm whether FGCGMYSHLQG [LGR4_Y848_D844G_YF] has phosphorylation enrichment at or above 0.6?
true (1)

Dear colleague, could you confirm whether HSSPVYVGRVV [TGM2_Y219_R214H] has phosphorylation enrichment at or above 0.6?
true (1)

Dear colleague, could you confirm whether FTYDPYSEEEP [IL2RB_Y387_D391E] has phosphorylation enrichment at or above 0.6?
false (0)

Dear colleague, could you confirm whether CNSFRYGGGGG [NPPA_Y151] has phosphorylation enrichment at or above 0.6?
false (0)

Dear colleague, could you confirm whether PLGPLYASSNP [INSR_Y992] has phosphorylation enrichment at or above 0.6?
true (1)

Dear colleague, could you confirm whether NAMRRHIEEFQ [MNS1_Y244_Y244H] has phosphorylation enrichment at or above 0.6?
false (0)

Dear colleague, could you confirm whether MCDSHYLESRF [CLK1_Y56_S61F] has phosphorylation enrichment at or above 0.6?
false (0)

Dear colleague, could you confirm whether LSNPAYRLLLA [DDR1_Y513] has phosphorylation enrichment at or above 0.6?
false (0)

Dear colleague, could you confirm whether LFCVHYFHRTF [SRD5A2_Y91] has phosphorylation enrichment at or above 0.6?
true (1)

Dear colleague, could you confirm whether EVEFQYPFRLH [SYP_Y73_E72Q] has phosphorylation enrichment at or above 0.6?
false (0)

Dear colleague, could you confirm whether EILLSYLRTGY [TGM1_Y365] has phosphorylation enrichment at or above 0.6?
false (0)

Dear colleague, could you confirm whether TKEPKYEGAGS [KIAA1210_Y1615] has phosphorylation enrichment at or above 0.6?
false (0)

Dear colleague, could you confirm whether NCFKFYMSDDI [ATRX_Y204_YF] has phosphorylation enrichment at or above 0.6?
false (0)

Dear colleague, could you confirm whether MRALIYNSSTV [PLEKHA7_Y243_A248V] has phosphorylation enrichment at or above 0.6?
false (0)

Dear colleague, could you confirm whether ALTRSYVREKV [CYP2C8_Y243_I244V] has phosphorylation enrichment at or above 0.6?
false (0)

Dear colleague, could you confirm whether GSERRYSREGG [PTPRN2_Y139] has phosphorylation enrichment at or above 0.6?
false (0)

Dear colleague, could you confirm whether ASKEPYYVHCI [MYO1D_Y585_R588H] has phosphorylation enrichment at or above 0.6?
true (1)
